Test system: Candida albicans
EXPERIMENTAL DETAILS: Antifungal activity against Candida albicans ATCC 24433 after 24 to 36 hrs by broth microdilution method
Assay type: functional, organism-based
RESULT TYPE: IC50 (µg/mL)
Answers are plain numbers, in µg/mL.

The following compounds have reported results that may help.
> print(dat)
                                   compound  result.type  meas.value
1  CC(Cc1ccc([Si](C)(C)C)cc1)CN1CCSCC1 (stereo unspecified)         IC50       0.245
2  CC(Cc1ccc([Si](C)(C)C)cc1)CN1CCOCC1 (stereo unspecified)         IC50        0.74
3  CC(Cc1ccc(C(C)(C)C)cc1)CN1CCCCC1 (stereo unspecified) [FENPROPIDIN]         IC50        0.19
4  CCN(CC)CC(C)Cc1ccc([Si](C)(C)C)cc1 (stereo unspecified)         IC50        3.75
5  CC(CNC1CCN(C)CC1)Cc1ccc([Si](C)(C)C)cc1 (stereo unspecified)         IC50        5.13

QUERY: Give the reported IC50 for CC(Cc1ccc([Si](C)(C)C)cc1)CN1CCCC1 (stereo unspecified) (system: Candida albicans).
RESULT: 0.97
